target: UniProt Q9UNQ0; assay: Inhibition of recombinant human GFP-fused ABCG2 expressed in MDCK2 cells assessed as reduction in Hoechst 33342 efflux at 10 uM preincubated for 30 mins followed by Hoechst 33342 addition measured immediately at 60 sec time interval for 120 mins by fluorescence assay relative to XR9577; type: cell-based, MDCK-II; settings: MDCK2 cells expressing recombinant human GFP-fused ABCG2, probe Hoechst 33342, read-out: Imax
Sequence (Q9UNQ0 whole entry, the tested form may be a part): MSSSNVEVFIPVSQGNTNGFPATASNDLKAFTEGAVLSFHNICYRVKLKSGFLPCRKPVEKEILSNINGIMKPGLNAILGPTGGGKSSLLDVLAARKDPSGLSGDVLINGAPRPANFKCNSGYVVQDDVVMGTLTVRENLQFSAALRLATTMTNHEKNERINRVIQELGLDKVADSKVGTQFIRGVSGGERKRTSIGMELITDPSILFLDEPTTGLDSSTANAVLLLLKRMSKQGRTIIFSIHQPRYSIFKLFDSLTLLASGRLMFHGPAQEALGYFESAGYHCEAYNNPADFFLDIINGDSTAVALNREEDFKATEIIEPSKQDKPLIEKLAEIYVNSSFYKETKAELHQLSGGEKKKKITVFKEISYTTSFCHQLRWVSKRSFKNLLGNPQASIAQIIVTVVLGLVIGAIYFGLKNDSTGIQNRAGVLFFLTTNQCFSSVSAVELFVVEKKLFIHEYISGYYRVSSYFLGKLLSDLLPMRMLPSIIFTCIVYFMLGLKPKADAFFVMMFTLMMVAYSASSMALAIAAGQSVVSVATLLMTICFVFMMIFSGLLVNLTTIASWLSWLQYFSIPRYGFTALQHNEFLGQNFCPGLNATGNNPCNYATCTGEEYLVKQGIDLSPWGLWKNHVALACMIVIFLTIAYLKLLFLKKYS
value kind: Emax at 2 h, 10 µM

                                smiles_data  measurement
0  COc1ccc(C(=O)Nc2ccccc2-c2nnn(-c3ccc(Cl)cc3)n2)cc1          59%
1  CSc1ccc(-n2nnc(-c3ccccc3NC(=O)c3ccccc3[N+](=O)[O-])n2)cc1          91%
2  COc1ccc(C(=O)Nc2ccccc2-c2nnn(-c3ccc(SC)cc3)n2)cc1         100%
3  O=C(Nc1ccccc1-c1nnn(-c2ccccc2)n1)c1cccc([N+](=O)[O-])c1          91%
4  CCCc1ccc(C(=O)Nc2ccccc2-c2nnn(-c3ccccc3)n2)cc1         100%
5  CCOc1ccc(-n2nnc(-c3ccccc3NC(=O)c3ccccc3[N+](=O)[O-])n2)cc1          72%
